Data origin, for the record: the supplement of paper PMC13380429

In this section, each of the molecules is paired with its reported cell viability.
Tested on: Caco-2
Assay Overview: cell viability relative to DMSO; higher = less toxic
Particulars: 72 h; 1 nM
Your answer should be a plain number; it is taken to be in %.

Look over these answered cases.
N#C/C(=C\c1cccn1S(=O)(=O)c1cccc([N+](=O)[O-])c1)S(=O)(=O)c1ccc(F)cc1 [AMZ30]: 104
CCCCOC(=O)c1ccc(N)cc1 [butamben]: 108
CN1CCN(Cc2ccc(Nc3ncc(Cl)c(Nc4ccccc4S(=O)(=O)N(C)C)n3)cc2)CC1 [TP-0903]: 109
CC(=O)Oc1ccc(C(c2ccc(OC(C)=O)cc2)c2ccccn2)cc1 [bisacodyl]: 92.8
N#Cc1nn(-c2c(Cl)cc(C(F)(F)F)cc2Cl)c(N)c1[S+]([O-])C(F)(F)F (stereo not drawn) [fipronil]: 103
COC1=C(OC)C(=O)C(CCCCCCCCCCO)=C(C)C1=O [idebenone]: 96.4
O=C(Nc1cc(C(F)(F)F)ccc1O)Nc1cc(C(F)(F)F)ccc1O [NS-1643]: 108
CN[C@@H](C)C(=O)N[C@H]1CCCC[C@H]2CC[C@@H](C(=O)N[C@@H](c3ccccc3)c3cn(CCCCc4ccc(CCCCn5cc([C@@H](NC(=O)[C@@H]6CC[C@@H]7CCCC[C@H](NC(=O)[C@H](C)NC)C(=O)N76)c6ccccc6)nn5)cc4)nn3)N2C1=O [SM-164]: 105
CC(=O)O[C@]1(C(C)=O)CC[C@H]2[C@@H]3C=C(C)C4=CC(=O)CC[C@@H]4[C@H]3CC[C@@]21C [nomegestrol-acetate]: 88.5
N[C@@H](Cc1cc(CP(=O)(O)O)cc(-c2ccccc2Cl)c1)C(=O)O [SDZ-220-581]: 102

Query :: What cell viability value was documented for this molecule, FC(F)c1nc2ccccc2n1-c1nc(N2CCOCC2)nc(N2CCOCC2)n1 [ZSTK-474] ?
Result :: 102

Query :: Again, but for CC(=O)N(CC(O)CO)c1c(I)c(C(=O)NCC(O)CO)c(I)c(C(=O)NCC(O)CO)c1I (stereo not drawn) [iohexol]
Result :: 95.9
